Biological target: Prostaglandin D2 receptor 2 (Homo sapiens, UniProt Q9Y5Y4)
Sequence (Q9Y5Y4 whole entry): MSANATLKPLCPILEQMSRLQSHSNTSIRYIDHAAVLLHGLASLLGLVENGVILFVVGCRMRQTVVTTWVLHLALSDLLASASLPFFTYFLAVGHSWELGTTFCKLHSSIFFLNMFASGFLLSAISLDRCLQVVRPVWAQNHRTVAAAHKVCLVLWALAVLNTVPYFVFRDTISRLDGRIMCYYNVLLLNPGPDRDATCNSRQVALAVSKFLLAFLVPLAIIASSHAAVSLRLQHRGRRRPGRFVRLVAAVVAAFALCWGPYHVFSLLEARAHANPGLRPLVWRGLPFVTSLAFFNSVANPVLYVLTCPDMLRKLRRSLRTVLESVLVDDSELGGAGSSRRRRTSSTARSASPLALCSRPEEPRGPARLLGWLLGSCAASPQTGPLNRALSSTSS
Assay: Antagonist activity at DP2 receptor in human whole assessed as inhibition of DK-PGD2-induced eosinophils shape change preincubated for 5 mins followed by DK-PGD2 addition measured after 5 mins by flow cytometry
readout name: pIC50
Value format note: pIC50 is -log10 of concentration (mol/L); just state the number.

Any idea what its pIC50 is? The compound is "CCS(=O)(=O)c1ccc(Cn2c(C)c(CC(=O)O)c3cccnc32)c(Cl)c1"
8.15

----------
Assay: Antagonist activity at DP2 receptor in human whole assessed as inhibition of DK-PGD2-induced eosinophils shape change preincubated for 5 mins followed by DK-PGD2 addition measured after 5 mins by flow cytometry
Reported log10(IC50) by item:
Note: values are log10 of IC50 expressed in µM.

Reference set, count: 5
> print(dat)
                        structure.as.smiles  recorded.value
1  Cc1c(CC(=O)O)c2cccnc2n1Cc1ccc(S(C)(=O)=O)cc1Cl           -1.33
2  Cc1c(CC(=O)O)c2ccccc2n1Cc1ccc(S(C)(=O)=O)cc1           -0.73
3  CCS(=O)(=O)c1ccc(Cn2c(C)c(CC(=O)O)c3cccnc32)c(C(F)(F)F)c1           -2.40
4  Cc1c(CC(=O)O)c2cccnc2n1Cc1ccc(S(C)(=O)=O)c(C(F)(F)F)c1           -1.96
5  Cc1c(CC(=O)O)c2cccnc2n1Cc1ccc(C(F)(F)F)cc1C(F)(F)F           -0.67

Query compound follows.
# input compound: "Cc1cc(S(C)(=O)=O)ccc1Cn1c(C)c(CC(=O)O)c2cccnc21" ; wanted: its log10(IC50)
-1.49
